Assay: Acute toxicity test of compound I-6
Assay type: in vivo, mice
Settings: both sexes, Kunming, mouse, in vivo, intraperitoneal; peritoneal administration, mice, observation two weeks
Endpoint Name: LD50 at 2 weeks (mg/kg)

Compound: O=C1CC(C(=O)N2CCc3ccccc3C2CN2CCCC2)c2cc(Cl)ccc21 (stereo not shown)
Endpoint Name: LD50 at 2 weeks
Measure Unit: mg/kg
Measured: 40.1

###

Target: κ-opioid receptor (Homo sapiens, UniProt P41145)
Assay: Radioligand receptor binding assay, competition with [3H]diprenorphine, κ-receptor
Conditions: competition binding with κ-receptor, compound at 1 × 10^−5 M, [3H]diprenorphine 0.5 nM

Molecule: COc1ccc2c(c1)C(C(=O)N1CCc3cc(OC)c(OC)cc3C1CN1CCCC1)CC2=O (stereo not drawn)
dpm: 3271.85 dpm

Molecule: COc1cc2c(cc1OC)C(C(=O)N1CCc3ccccc3C1CN1CCCC1)CC2=O (stereo not drawn)
dpm: 260.58 dpm

Molecule: COc1cc2c(cc1OC)C(CN1CCCC1)N(C(=O)C1CC(=O)c3ccccc31)CC2 (stereo not drawn)
dpm: 1883.77 dpm

Origin of the recorded values: patent US7820692B2
